Could you please report measured growth for the items listed next?
test system: U251 CNS; experiment: NCI-60 one-dose screen, 48 h (100 = growth as untreated, 0 = no growth, -100 = all killed); conditions: 10 µM unless noted
About 83,000 compounds went through this panel and 20% of them were active in at least one assay; those are over-represented in the sample as a whole.
Answers are plain numbers, in %.

1) CCOC(=O)C1=C(N)Oc2c(sc3c(C)cccc23)C1c1ccc(F)cc1 (stereo not drawn)	19.4
2) CNCCCNc1nc2ccccc2c2c(=O)c3cc(OC)ccc3sc12	48.3
3) c1ccc(-c2nc3sc(-c4ccccc4)cn3n2)cc1	93.6
4) COc1cc(C(=O)N/N=C/c2cc3cc(OCc4ccccc4)ccc3nc2OC)cc(OC)c1OC	84.8
5) O=C(Nc1ccc(-c2nc(-c3cccc(OCCN4CCOCC4)c3)c(-c3ccnc(Br)c3)[nH]2)cc1)c1ccccc1	8.84
6) O=C1c2cccc3cccc(c23)C(=O)N1N1C(=O)c2cccc3c(NC4CCCCC4)ccc(c23)C1=O	99.7
7) COc1cccc(-c2nc(-c3ccc(NS(=O)(=O)c4ccccc4)cc3)[nH]c2-c2ccnc(Br)c2)c1	35.4

Would you kindly look at the next entry?
Noted for CC[C@H](C)C(=O)O[C@H]1CCC=C2C=C[C@H](C)[C@H](CC[C@@H]3CC=CC(=O)O3)[C@H]21 : its growth reads 88.1

====

test system: SN12C renal; experiment: NCI-60 one-dose screen, 48 h; conditions: 10 µM unless noted
Compounds without any hit were thinned out: in the full panel of roughly 83,000, 20% have a hit. The source made the active and inactive calls. How the source made its calls: active means growth percent below 10; inactive means the rest.
Tick one outcome: True for active, False for inactive

For orientation, consider the following solved cases.
1. Nc1ccccc1-c1cc2c(c3c1[nH]c1ccccc13)CCCCC2	False
2. O=C(O)CCC/C=C\C[C@H]1C=CC(=O)/C1=C/C[C@@H](O)CCc1cccc(C(F)(F)F)c1	True
3. CC(=O)N1N=C(c2ccc(Nc3nc(Nc4ccc(F)cc4)nc(Nc4ccc(Cl)cc4)n3)cc2)CC1c1ccc(Cl)cc1 (stereo unspecified)	False
4. O=c1c2cccc(Cl)c2sc2c(NCCCNCCO)nc3ccccc3c12	False
5. COc1cccc2c(=O)c3c(sc12)c(N1CCNCC1)nc1ccccc13	False

Lookup: // outcome(item) with item = OC(COc1ccccc1Cl)CN1CCN(c2cccc(Cl)c2)CC1 (stereo unspecified)
Found: False

Lookup: // outcome(item) with item = Cc1[nH]c(C(=O)Nc2ccc(C(=O)N3CCNCC3)cc2OC(C)C)c(Cl)c1Cl
Found: False

Lookup: // outcome(item) with item = COc1cc(/C=C2\C(=O)Nc3ccc(Br)cc32)cc(OC)c1OC
Found: False

Lookup: // outcome(item) with item = CCCCCCCCCCCCCCCCCCOc1ccc(CC(=O)OCC[N+]2(C)CCCCC2)cc1
Found: False

Lookup: // outcome(item) with item = CN1CCN(Cc2ccc(NC(=O)c3cncc(C#Cc4cnccc4C#N)c3)cc2C(F)(F)F)CC1
Found: False

Lookup: // outcome(item) with item = O=C(Nn1c(NCC(=O)N2c3ccccc3Sc3ccccc32)nnc1-c1ccc(O)cc1)c1ccccc1
Found: False

Lookup: // outcome(item) with item = Cc1nc2ccccc2c(/C=C/c2ccccc2)c1C(=O)/C=C/c1ccc(C(F)(F)F)cc1
Found: True

Lookup: // outcome(item) with item = COc1cc(-c2nc3sccn3c2-c2ccnc(NCCCNS(=O)(=O)c3ccc(F)cc3)n2)ccc1F
Found: False
